Reported ASMS ratio (%) values are given for each entry in this list.
SYSTEM_NAME: Bcl-2 protein (Recombinant Human Bcl-2 Protein) (Homo sapiens, UniProt P10415)
Construct: purchased Novus NBP2-34889
Sequence (P10415 whole entry): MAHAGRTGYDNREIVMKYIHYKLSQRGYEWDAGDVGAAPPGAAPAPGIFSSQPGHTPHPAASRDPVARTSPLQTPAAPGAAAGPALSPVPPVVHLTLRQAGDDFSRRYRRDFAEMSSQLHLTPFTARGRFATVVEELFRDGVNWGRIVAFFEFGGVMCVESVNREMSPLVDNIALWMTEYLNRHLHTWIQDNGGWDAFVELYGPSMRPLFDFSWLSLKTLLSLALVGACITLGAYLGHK
TEST_SUMMARY: Binding evaluation of mixture library compounds to Bcl-2 using AS-MS (affinity selection mass spectrometry)
PARTICULARS: n = 1

COMPOUND: CCOc1cccc(-c2cc(CN3CCN(c4ccc(C(=O)NS(=O)(=O)C(C)(C)C)nn4)CC3)cc(OC(C)C)c2)c1
ASMS ratio (%): 0.0%

COMPOUND: CCOc1cccc(-c2ccc(CN3CCN(c4ccc(C(=O)NS(C)(=O)=O)cc4)CC3)cc2F)c1
ASMS ratio (%): 0.0%

COMPOUND: CCOc1cncc(-c2ccc(C(=O)N3CCN(c4ccc(C(=O)NS(=O)(=O)C(C)(C)C)nn4)CC3)cc2C)c1
ASMS ratio (%): 5.5%

COMPOUND: CCOc1cncc(-c2ccc(C(=O)N3CCN(c4ccc(C(=O)NS(=O)(=O)C(C)(C)C)cc4)CC3)cc2F)c1
ASMS ratio (%): 0.0%

COMPOUND: CCOc1cncc(-c2ccc(C(C)N3CCN(c4ccc(C(=O)NS(=O)(=O)CCC(F)(F)F)cc4)CC3)c(F)c2)c1 (stereo not shown)
ASMS ratio (%): 0.0%

Record request: ASMS ratio (%) value, item `CCOc1cccc(-c2ccc(CN3CCN(c4ccc(C(=O)NS(=O)(=O)c5ccc(NCCSc6ccccc6)c(C(F)(F)F)c5)cc4)CC3)cc2C)c1`
6.6%

How about this compound: `CCOc1cncc(C#Cc2ccccc2C(=O)N2CCN(c3ccc(C(=O)NS(=O)(=O)c4ccc(NCCSc5ccccc5)c(C(F)(F)F)c4)cc3)CC2)c1`
0.0%
